- target under test: mouse melanocortin-3 receptor (mouse, UniProt P33033 1-323)
- Sequence (P33033 whole entry): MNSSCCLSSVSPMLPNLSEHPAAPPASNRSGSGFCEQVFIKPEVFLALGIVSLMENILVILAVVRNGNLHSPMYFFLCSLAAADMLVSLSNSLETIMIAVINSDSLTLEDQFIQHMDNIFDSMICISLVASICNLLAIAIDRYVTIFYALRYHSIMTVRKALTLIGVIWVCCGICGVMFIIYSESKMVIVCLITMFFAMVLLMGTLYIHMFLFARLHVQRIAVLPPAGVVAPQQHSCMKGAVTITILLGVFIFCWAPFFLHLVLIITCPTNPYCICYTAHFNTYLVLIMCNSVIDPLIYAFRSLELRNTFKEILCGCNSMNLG
- protocol description: cell-based or functional assay
Square brackets hold non-standard residues; d marks the D form.
readout label: antagonist pA2 (Schild, agonist NDP-MSH)

cyclo(PRFFNSF[dP]) (SMILES N=C(N)NCCC[C@@H]1NC(=O)[C@@H]2CCCN2C(=O)[C@H]2CCCN2C(=O)[C@H](Cc2ccccc2)NC(=O)[C@H](CO)NC(=O)[C@H](CC(N)=O)NC(=O)[C@H](Cc2ccccc2)NC(=O)[C@H](Cc2ccccc2)NC1=O) [c[Pro-Arg-Phe-Phe-Asn-Ser-Phe-DPro]] = 6.2
PRFFXAFP (head-to-tail cyclic; DDap at 5; DPro at 8) [c[Pro-Arg-Phe-Phe-DDap-Ala-Phe-DPro]] = 6.7
cyclo(PRFFNAA[dP]) (SMILES C[C@@H]1NC(=O)[C@H](CC(N)=O)NC(=O)[C@H](Cc2ccccc2)NC(=O)[C@H](Cc2ccccc2)NC(=O)[C@H](CCCNC(=N)N)NC(=O)[C@@H]2CCCN2C(=O)[C@H]2CCCN2C(=O)[C@H](C)NC1=O) [c[Pro-Arg-Phe-Phe-Asn-Ala-Ala-DPro]] = 6.1
cyclo(PRFFSAF[dP]) [c[Pro-Arg-Phe-Phe-Ser-Ala-Phe-DPro]] = 5.9
